Test: chemical genetic growth profiling, strain panel (AID 1159580);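 also: tested at 20 µM; growth read once vehicle control cultures reached saturation at 30 °C; 1 = growth at the plate median or of vehicle wells; lower values mean less growth of the strain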
Conditions: S. cerevisiae deletion strains, growth OD, locus YIL073C, strain SPO22, stronger effect = lower value
Screen size: about 5,500 compounds; about 2,000 (36%) were called active. Not shown: some 18% with an inconclusive outcome. Some of the results follow.
MEASURED ENDPOINT: normalized growth
Numbers only.

Reference set (3 entries):
{"columns": ["MOLECULE", "normalized growth"],
 "data": [
  ["COC(=O)C[C@H]1C(C)(C)C2(Cl)O[C@@]34CC2C(=O)[C@]1(C)C3CC[C@]1(C)C4=CC(=O)O[C@H]1c1ccoc1 (stereo not given in full)", 1],
  ["COc1ccccc1/C=C\\C(=O)O", 1.23],
  ["CCCCC1C(=O)N(c2ccccc2)N(c2ccc(O)cc2)C1=O (stereo not given)", 1.01]
]}

I would be grateful if you could provide normalized growth for each of the following entries.
1. CC(C)[N+](C)(CCC(C(N)=O)(c1ccccc1)c1ccccc1)C(C)C
2. NS(=O)(=O)c1cc(C2(O)NC(=O)c3ccccc32)ccc1Cl (stereo not given)

**A:**
0.988
1.06

Reference source for all entries: PubChem BioAssay AID1159580
